Target: T1, monkey CD3e (Macaca fascicularis) on PBMC (Macaca fascicularis, UniProt Q95LI5 22-198)
T1 construct: Target on PBMC from Macaca fascicularis; also called mfCD3e; monkey PBMC
T1 sequence (Q95LI5 22-198 limits assumed): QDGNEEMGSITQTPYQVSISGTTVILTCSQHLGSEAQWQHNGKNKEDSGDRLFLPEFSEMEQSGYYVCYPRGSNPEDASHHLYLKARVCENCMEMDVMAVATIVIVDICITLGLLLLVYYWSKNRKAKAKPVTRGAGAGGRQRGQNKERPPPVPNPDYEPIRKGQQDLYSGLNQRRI
Assay: flow cytometry, Macaca fascicularis PBMC, antibody concentration not given, anti-human IgG Fc-Alexa Fluor647 (1:500), anti-hTcRβ-PerCP (1:30)
Description: A 96-well plate was prepared. 25 ul of cell suspension was added to each well. Anti-hCD3 antibodies were added to the 96-well plate. The cells and the antibodies were incubated for 15 minutes at 4° C. 185 ul PBS was then added to each well. After centrifuge at 2000 rpm for 5 minutes, the medium was discarded. The samples were washed again. 25 ul of PBS was then added to resuspend cells. Anti-human IgG Fc-Alexa Fluror647 (1:500) and anti-hTcRβ PerCP (1:30) were then added to each well. […]
Reported upper left quadrant, percent of cells AF647+ / hTcRβ-PerCP- is given for each of the following binders.
Record the value in %, omitting the unit from your answer.

Here's what some known entries look like.
* 1B1-H1K1-IgG1-LALA (antibody, V domains shown, Humanized; human IgG1 with LALA mutations; also called H1K1 (humanized 1B1)) VH: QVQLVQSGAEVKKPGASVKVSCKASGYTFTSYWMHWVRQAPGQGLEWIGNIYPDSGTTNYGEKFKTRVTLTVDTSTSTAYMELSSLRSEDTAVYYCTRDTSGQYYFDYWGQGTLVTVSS VL: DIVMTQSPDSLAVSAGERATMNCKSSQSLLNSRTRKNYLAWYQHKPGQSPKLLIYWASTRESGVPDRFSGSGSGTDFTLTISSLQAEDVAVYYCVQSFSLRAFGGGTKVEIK | 69.5
* 1B1-H3K1-IgG1-LALA (antibody, V domains shown, Humanized; human IgG1 with LALA mutations; also called H3K1 (humanized 1B1)) VH: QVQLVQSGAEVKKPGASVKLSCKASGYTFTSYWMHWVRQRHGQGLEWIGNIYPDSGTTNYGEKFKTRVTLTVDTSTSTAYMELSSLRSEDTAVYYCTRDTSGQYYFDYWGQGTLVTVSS VL: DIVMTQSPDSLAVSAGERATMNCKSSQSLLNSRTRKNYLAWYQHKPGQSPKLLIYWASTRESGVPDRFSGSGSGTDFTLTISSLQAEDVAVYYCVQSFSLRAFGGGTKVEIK | 78.8
* 10A4-H3K1-IgG1-LALA (antibody, V domains shown, Humanized; human IgG1 with LALA mutations; also called H3K1 (humanized 10A4)) VH: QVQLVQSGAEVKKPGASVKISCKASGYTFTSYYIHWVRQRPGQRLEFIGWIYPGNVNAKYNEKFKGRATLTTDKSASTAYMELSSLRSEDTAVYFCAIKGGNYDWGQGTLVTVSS VL: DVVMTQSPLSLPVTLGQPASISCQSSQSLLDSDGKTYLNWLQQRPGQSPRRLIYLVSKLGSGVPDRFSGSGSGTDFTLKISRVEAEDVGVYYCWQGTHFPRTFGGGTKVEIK | 52
* 1B1-H3K3-IgG1-LALA (antibody, V domains shown, Humanized; human IgG1 with LALA mutations; also called H3K3 (humanized 1B1)) VH: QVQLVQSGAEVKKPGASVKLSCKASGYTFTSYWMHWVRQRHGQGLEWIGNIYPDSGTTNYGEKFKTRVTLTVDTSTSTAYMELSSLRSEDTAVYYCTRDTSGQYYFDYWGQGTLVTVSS VL: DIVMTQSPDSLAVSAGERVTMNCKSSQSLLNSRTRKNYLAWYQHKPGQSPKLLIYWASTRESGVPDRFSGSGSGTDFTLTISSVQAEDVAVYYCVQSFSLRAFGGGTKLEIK | 86.8

Inquiry: Please indicate upper left quadrant, percent of cells AF647+ / hTcRβ-PerCP- recorded for 1B1-H3K2-IgG1-LALA (antibody, V domains shown, Humanized; human IgG1 with LALA mutations; also called H3K2 (humanized 1B1)) VH: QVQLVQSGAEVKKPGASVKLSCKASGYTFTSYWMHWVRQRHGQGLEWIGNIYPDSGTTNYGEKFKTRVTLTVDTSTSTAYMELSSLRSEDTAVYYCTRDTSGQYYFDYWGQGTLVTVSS VL: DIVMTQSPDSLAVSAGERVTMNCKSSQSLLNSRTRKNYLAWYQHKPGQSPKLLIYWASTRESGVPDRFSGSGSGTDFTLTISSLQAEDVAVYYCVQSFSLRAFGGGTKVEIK
Reply text: 89.5

Inquiry: Please indicate upper left quadrant, percent of cells AF647+ / hTcRβ-PerCP- recorded for 10A4-H3K2-IgG1-LALA (antibody, V domains shown, Humanized; human IgG1 with LALA mutations; also called H3K2 (humanized 10A4)) VH: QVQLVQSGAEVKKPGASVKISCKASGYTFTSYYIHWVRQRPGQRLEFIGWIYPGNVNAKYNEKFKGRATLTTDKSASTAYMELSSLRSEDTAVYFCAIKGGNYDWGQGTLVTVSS VL: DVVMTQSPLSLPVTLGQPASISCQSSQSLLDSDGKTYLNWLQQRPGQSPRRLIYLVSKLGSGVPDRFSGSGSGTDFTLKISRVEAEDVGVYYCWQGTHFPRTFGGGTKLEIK
Reply text: 45.1
